Values from patent US10227331B2

# Tested on: P. aeruginosa expressing IMP-1, efflux+ (MB9798)
# Type: cell-based, Pseudomonas aeruginosa
# Assay Conditions: ratio MITC95 PA_9798/MITC95 PA_9799
Entries annotated with measured Efflux ratio
# print the numeric value only

Task item: Can you look up the measured Efflux ratio of NS(=O)(=O)c1c(S(=O)(=O)C2CNC2)ccc(-c2ccc3ncnn3c2)c1-c1nnn[nH]1.O=C(O)C(F)(F)F for me?
Reply: 8.00

Task item: Then this compound: COC(=O)c1cccc(-c2ccc(S(=O)(=O)CCN)c(S(N)(=O)=O)c2-c2nn[nH]n2)c1N
Reply: 8.00

###

# Study Target: VIM-1 (Pseudomonas aeruginosa (strain ATCC 15692 / DSM 22644 / CIP 104116 / JCM 14847 / LMG 12228 / 1C / PRS 101 / PAO1))
# Measurement Description: biochemical
# Assay Conditions: CCF2-FA substrate, 2 hours at 25° C
Measure Name: IC50 (nM)
Just the number in nM, nothing appended.

Past entries and their recorded results:
{"Compound": "Nc1ncc(-c2ccc(S(=O)(=O)C3CNC3)c(S(N)(=O)=O)c2-c2nn[nH]n2)c2cccnc12", "Value Unit": "nM", "Reading": 0.556}
{"Compound": "CNC(=O)c1nc2c(-c3ccc(S(=O)(=O)C4CNC4)c(S(N)(=O)=O)c3-c3nn[nH]n3)cccc2[nH]1", "Value Unit": "nM", "Reading": 0.419}
{"Compound": "NS(=O)(=O)c1c(S(=O)(=O)C2CNC2)ccc(-c2csc(N3CCCC3)n2)c1-c1nnn[nH]1.O=C(O)C(F)(F)F [Example 120, 2,2,2-trifluoroacetate]", "Value Unit": "nM", "Reading": 1.42}

Task item: Can you look up the measured IC50 of COC(=O)c1cccc(-c2ccc(S(=O)(=O)CCN)c(S(N)(=O)=O)c2-c2nn[nH]n2)c1NCCN for me?
Reply: 4.46

Task item: Then this compound: Nc1nc2c(-c3ccc(S(=O)(=O)C4CNC4)c(S(N)(=O)=O)c3-c3nn[nH]n3)cccc2c(=O)[nH]1
Reply: 0.348

Task item: Then this compound: NS(=O)(=O)c1c(S(=O)(=O)C2CNC2)ccc(-c2cccc3scnc23)c1-c1nn[nH]n1
Reply: 0.176

Task item: Then this compound: Nc1nc2cc(-c3ccc(S(=O)(=O)C4CNC4)c(S(N)(=O)=O)c3-c3nn[nH]n3)ccc2[nH]1
Reply: 0.348
